# Tested on: TSLP-induced pruritus
# EXPERIMENT NOTES: TSLP-induced pruritus, number of scratching actions (MicroAct)
# Format: in vivo, BALB/c mice
# MEASUREMENT CONTEXT: mice; 1 μM and 10 μM injected subcutaneously together with 0.67 μg TSLP; counted for 1 hour; p<0.05 versus TSLP-treated group; FIG. 5
REPORTED PROPERTY: Effect of inhibiting TSLP-induced pruritus (number of scratching actions)

- COc1cc2c(=O)c(-c3ccc(O)cc3)coc2cc1O: did not inhibit
- O=c1c(-c2ccc(O)cc2)coc2cc(O)cc(O)c12: significantly inhibited
- Oc1ccc([C@H]2COc3cc(O)ccc3C2)cc1: did not inhibit
- O=c1c(-c2ccc(O)cc2)coc2cc(O)ccc12: significantly inhibited
